Cited source for all entries: paper PMC9516332

target: UniProt P06239; experiment: Kinase panel profiling at 1 µmol/L (MSA or IMAP), percentage inhibition; format: biochemical; settings: kinase LCK; 1 µmol/L single concentration; read-out: %-inhibition at 1 µmol/L, LCK
Sequence (P06239 whole entry): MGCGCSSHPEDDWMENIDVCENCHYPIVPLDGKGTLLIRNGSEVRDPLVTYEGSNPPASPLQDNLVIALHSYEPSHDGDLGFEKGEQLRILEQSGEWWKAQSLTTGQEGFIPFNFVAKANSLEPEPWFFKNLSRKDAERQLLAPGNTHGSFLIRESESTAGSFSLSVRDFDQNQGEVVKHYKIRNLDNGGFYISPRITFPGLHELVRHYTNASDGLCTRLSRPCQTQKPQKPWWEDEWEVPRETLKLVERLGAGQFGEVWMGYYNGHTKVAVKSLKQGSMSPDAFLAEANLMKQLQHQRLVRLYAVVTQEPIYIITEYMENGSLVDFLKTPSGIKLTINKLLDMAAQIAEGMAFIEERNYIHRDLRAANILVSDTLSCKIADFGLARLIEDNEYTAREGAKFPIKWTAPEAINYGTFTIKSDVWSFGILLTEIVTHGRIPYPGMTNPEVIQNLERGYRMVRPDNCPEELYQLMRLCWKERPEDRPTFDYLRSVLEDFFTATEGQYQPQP

{"columns": ["compound", "measured_on", "inhibition at 1 µM [%]"],
 "data": [
  ["CCc1nc(C(N)=O)c(Nc2ccc(N3CCC(N4CCN(C)CC4)CC3)c(OC)c2)nc1NC1CCOCC1 [gilteritinib]", "UniProt P06239", 97],
  ["Cn1cc(-c2cc3c(N4CCN(c5ncc([C@@](C)(N)c6ccc(F)cc6)cn5)CC4)ncnn3c2)cn1 [avapritinib]", "UniProt P06239", 92],
  ["FC(F)(F)c1ccc(CNc2ccc(Cc3c[nH]c4ncc(Cl)cc34)cn2)cn1 [pexidartinib]", "UniProt P06239", 51],
  ["COc1cc2ncnc(Nc3ccc(F)c(Cl)c3)c2cc1NC(=O)/C=C/CN1CCCCC1 [dacomitinib]", "UniProt P06239", 93],
  ["C[C@H]1Oc2cc(cnc2N)-c2c(nn(C)c2C#N)CN(C)C(=O)c2ccc(F)cc21 [lorlatinib]", "UniProt P06239", 24],
  ["COC(=O)N[C@@H](C)CNc1nccc(-c2cn(C(C)C)nc2-c2cc(Cl)cc(NS(C)(=O)=O)c2F)n1 [encorafenib]", "UniProt P06239", 1.39],
  ["CO[C@]1(C(=O)N[C@@H](C)c2ccc(-n3cc(F)cn3)nc2)CC[C@H](c2nc(C)cc(Nc3cc(C)[nH]n3)n2)CC1 [pralsetinib]", "UniProt P06239", 98],
  ["CCn1c(=O)c(-c2cc(NC(=O)Nc3ccccc3)c(F)cc2Br)cc2cnc(NC)cc21 [ripretinib]", "UniProt P06239", 99]
]}
